pIC50: −log10 of the molar value.
Listed here: compounds with reported pIC50 for FKBP (Homo sapiens).

>  <chem_smiles>
CC(C)C[C@@H](CN1CCC[C@H]1C(=O)NCCCCc1ccccc1)NS(=O)(=O)/C=C/c1ccccc1

>  <pIC50>
< 5.30

$$$$
>  <chem_smiles>
CC(C)C[C@@H](CN1CCC[C@H]1C(=O)NCCCCc1ccccc1)NS(C)(=O)=O

>  <pIC50>
5.46

$$$$
>  <chem_smiles>
CC(C)C[C@@H](CN1CCC[C@H]1C(=O)NCCCCc1ccccc1)NS(=O)(=O)c1cccc2cccnc12

>  <pIC50>
< 5.30

$$$$
>  <chem_smiles>
CC(C)C[C@@H](CN1CCC[C@H]1C(=O)NCCCCc1ccccc1)NS(=O)(=O)c1cccs1

>  <pIC50>
< 5.30

$$$$
